- Test system: Wolbachia pipientis
- Method Summary: Anti-Wolbachia Cell-Based Screen
- Assay type: functional
- Design: scale not given: in the data most compounds retested in dose-response had high values
- Cond: 5 µM
Out of some 48,000 compounds screened, about 13,000 (27%) showed an effect of 50% or more. The list shows a part of the results.
Quantity Kind: Percent Effect (%)
Response body: numeric value in %, unit text excluded.

> print(dat)
                                   compound   quantity.kind  unit.string  value.measured
1  CCc1cc(C(=O)N2CCC(C3CCN(c4ncccn4)CC3)C2)on1 (stereo not drawn)  Percent Effect            %          -2.788
2  CCCC1c2cccn2CCN1C(=O)Cn1cnc2sc(C)cc2c1=O (stereo not drawn)  Percent Effect            %           146.6
3  Cn1cnc2c1C(COCc1cccnc1)N(Cc1ccccn1)CC2 (stereo not drawn)  Percent Effect            %           -4.63
4  Fc1cnc(N2CC[C@@H](N3CCOCC3)[C@@H]2Cc2cccnc2)nc1.O=C(O)C(F)(F)F.O=C(O)C(F)(F)F  Percent Effect            %          -8.935
5  O=C(O)C(F)(F)F.O=S(=O)(C1CC1)N1CC[C@]2(C[C@@H](Oc3ccccn3)CO2)C1  Percent Effect            %          -7.855

Enter measured Percent Effect, system Wolbachia pipientis, for the compound shown: `COc1cccc(S(=O)(=O)N2CCN(C)[C@@H]3CS(=O)(=O)C[C@@H]32)c1`
0.7716

Enter measured Percent Effect, system Wolbachia pipientis, for the compound shown: `CC(C)Oc1cc(N2CC[C@@H](N3CCOCC3)[C@H](O)C2)nc(N)n1`
-17.76

Enter measured Percent Effect, system Wolbachia pipientis, for the compound shown: CNC(=O)C1CCCCN1C(=O)CCn1cnc2sccc2c1=O (stereo not drawn)
2.602

====

- Tested on: Wolbachia pipientis
- Method Summary: Anti-Wolbachia Cell-Based Screen
- Assay type: functional
- Set-up: scale not given: in the data most compounds retested in dose-response had high values
- Cond: 5 µM
Among all 48,000 compounds or so, about 13,000 (27%) showed an effect of 50% or more. The list shows a part of the results.
Quantity Kind: Percent Effect
Please answer in the form of a number followed by its unit of measurement.

> print(dat)
                                   compound   quantity.kind  value.measured
1  COc1cccc(CNC(=O)c2nc3c(o2)CN(C(=O)N(C)C)C3)c1  Percent Effect         -21.04%
2     NC(=O)c1cccc(CCNC(=O)N2Cc3ccccc3C2)c1  Percent Effect          2.881%
3  Cc1nn(C(C)C)c(C)c1CN1CCC(c2cc(C(C)C)n[nH]2)CC1  Percent Effect          4.458%
4  CCc1nc(N2CCN(c3ncccc3C#N)CC2)c2cnn(C)c2n1  Percent Effect         -1.782%
5  COC(=O)c1sc(C(NC(=O)c2ccccc2)C2CC2)nc1C (configuration not stated)  Percent Effect          -18.8%
6  CNc1nc2c(s1)C(=O)CN(C(=O)[C@@H](N)Cc1cccc(OC)c1)C2  Percent Effect          113.9%
7  CC(C)c1cnc(CN2C(=O)CC3(CCSC3)C2=O)o1 (configuration not stated)  Percent Effect          17.31%
8  CC(C)Nc1nc2c(s1)C(=O)CN(C(=O)NCCc1ccccc1)C2  Percent Effect          113.9%

Then this compound:
Provide measured Percent Effect value, entry: O=C(Nc1ccccc1OC1CCOC1)c1[nH]nc2c1CCCC2 (configuration not stated)
13.6%

Ref: ChEMBL document CHEMBL3988442
